Test system: HepG2-CANX-COX4
Experiment: phenotypically active (imaging signature differs from DMSO and reproducible) at any of 0.3-9 uM (binary (1 = active, 0 = inactive)); higher = active
Conditions: treatment time: 24 h
Where a name gives a salt, the structure may show the parent alone.
Reported phenotypically active values follow for various compounds
Give the figure only, with no unit attached.

Requested read-out: phenotypically active. Entry: CN1C(CC(O)c2ccccc2)CCCC1CC(O)c1ccccc1 (centres undefined) [Lobelanidine hydrochloride]
0

Requested read-out: phenotypically active. Entry: COc1ccc2c(c[n+](C)c3c4cc5c(cc4ccc23)OCO5)c1OC [Chelerythrine chloride]
0

Requested read-out: phenotypically active. Entry: COC1=CC(C)=C[C@@H](C)[C@@H](O)[C@@H](C)CC(C)=CC=C[C@H](OC)[C@@H]([C@@H](C)[C@@H](O)[C@H](C)[C@@]2(O)C[C@@H](O)[C@H](C)[C@@H](C(C)C)O2)OC1=O
1

Requested read-out: phenotypically active. Entry: COC1=CC(=O)O[C@@H](/C=C/c2ccccc2)C1
0

###

System: A549-TP53BP1-CLTA
Experiment: phenotypically active (imaging signature differs from DMSO and reproducible) at any of 0.3-9 uM (binary (1 = active, 0 = inactive)); higher = active
Conditions: treatment time: 24 h
Select the matching outcome among active, inactive

The following molecules have reported results that may help.
| MOLECULE | ASSIGNED CLASS |
| --- | --- |
| CCN1CCN(C(=O)Cc2ccc(Nc3ncc(F)c(Nc4ccc(C(=O)Nc5ccccc5Cl)cc4)n3)cc2)CC1 | active |
| O=C1C[C@@H]2OCC=C3C[N+]4([O-])CC[C@]56c7ccccc7N1[C@H]5[C@H]2[C@H]3C[C@@H]64 (stereo partly drawn) [Genostrychnine base] | inactive |
| CCOc1cc(C=O)ccc1O [Ethylvanilline] | inactive |
| CCCC(C)C1(CC)C(=O)N=C(S)NC1=O (stereo not drawn) [thiopental] | inactive |
| CCCCCC[C@H]1C(=O)O[C@H](C)[C@H](NC(=O)c2cccc(NC=O)c2O)C(=O)O[C@@H](C)[C@@H]1OC(=O)CC(C)C [antimycin a] | active |

# fetch the recorded call for O=C1CCC[C@@H]2[C@H]3CCCN4CCC[C@@H](CN12)[C@@H]34 [Matrine] here
inactive

# fetch the recorded call for CC1=CC(=O)C2=C(C)C[C@H](O)[C@@H]3[C@H](OC(=O)[C@H]3C)[C@@H]12 [Austricine hydrate] here
inactive

# fetch the recorded call for CC(C)C[C@H]1C(=O)N2CCC[C@H]2[C@]2(O)O[C@](NC(=O)[C@@H]3C=C4c5cccc6[nH]c(Br)c(c56)C[C@H]4N(C)C3)(C(C)C)C(=O)N12 [bromocriptine] here
active

###

Tested on: A549-TP53BP1-CLTA
Experiment: phenotypically active (imaging signature differs from DMSO and reproducible) at any of 0.3-9 uM (binary (1 = active, 0 = inactive)); higher = active
Settings: treatment time: 24 h
EXPERIMENTAL ENDPOINT: phenotypically active
Give the figure only, with no unit attached.

The examples below pair each entry with its known result.
| COMPOUND | phenotypically active |
| --- | --- |
| COc1cc2c(c(OC)c1OC)-c1ccc(O)c(=O)cc1[C@@H](N)CC2 | 1 |
| C=C1[C@@H](O)C2C=CC[C@H](C)C(=O)[C@](C)(O)C=C[C@@H](OC(C)=O)[C@]23C(=O)N[C@H](Cc2ccccc2)[C@@H]3[C@@H]1C (some centres not stated) | 1 |
| Clc1ccc2c(c1)C(c1ccccc1)=NCc1nncn1-2 | 0 |

Requested read-out: phenotypically active. Entry: CO[C@H]1C=C2CCN(C)[C@H]2[C@@H]2c3cc4c(cc3[C@@H](O)O[C@@H]21)OCO4
0

Requested read-out: phenotypically active. Entry: CC[C@@H](CO)NC(=O)[C@@H]1C=C2c3cccc4c3c(cn4C)C[C@H]2N(C)C1 [methysergide]
0

Requested read-out: phenotypically active. Entry: CC1=C2[C@H]3OC(=O)[C@@H](C)[C@@H]3CC[C@@]2(C)C=CC1=O
0

Requested read-out: phenotypically active. Entry: C[C@]12CC[C@H](O)C[C@H]1CC[C@@H]1[C@@H]2CC[C@]2(C)[C@@H](C3=CC(=O)OC3)CC[C@]12O
1

###

Test system: HepG2-CANX-COX4
Test: phenotypically active (imaging signature differs from DMSO and reproducible) at any of 0.3-9 uM (binary (1 = active, 0 = inactive)); higher = active
Details: treatment time: 24 h
Counter-ions that a name gives are not always drawn.
Select the matching outcome among 1.0 for active, 0.0 for inactive

| COMPOUND | TARGET OR TEST SYSTEM | ASSIGNED CLASS |
| --- | --- | --- |
| C=C1[C@@H](O)C2C=CC[C@H](C)C(=O)[C@](C)(O)C=C[C@@H](OC(C)=O)[C@]23C(=O)N[C@H](Cc2ccccc2)[C@@H]3[C@@H]1C (stereo partly drawn) | HepG2-CANX-COX4 | 1.0 |
| COc1ccc(OC)c(C(O)C(C)N)c1 (stereo not drawn) | HepG2-CANX-COX4 | 0.0 |
| COc1cc2c3cc1Oc1cc(ccc1O)C[C@@H]1c4c(cc(OC)c(O)c4Oc4cccc(c4)C[C@@H]3N(C)CC2)CC[N+]1(C)C [Tubocurarine chloride pentahydrate (+)] | HepG2-CANX-COX4 | 0.0 |
| CCN1C[C@@]2(COC)C3[C@@H](OC)[C@H]4[C@H]1C3([C@@H]1C[C@@]3(O)[C@H](OC(=O)c5ccccc5)[C@@H]1[C@]4(OC(C)=O)[C@@H](O)[C@@H]3OC)[C@H](OC)C[C@H]2O | HepG2-CANX-COX4 | 0.0 |
| c1cncc(C2CC3CCN2CC3)c1 (stereo not drawn) [RJR 2429 dihydrochloride] | HepG2-CANX-COX4 | 0.0 |

# fetch the recorded call for COC(=O)[C@@]1(O)C[C@H]2O[C@]1(C)n1c3ccccc3c3c4c(c5c6ccccc6n2c5c31)C(=O)NC4 here
1.0

# fetch the recorded call for C[C@]12COC(=O)C[C@@H]1CC[C@@H]1[C@@H]2CC[C@@]2(C)[C@H]1CC[C@]2(C)O here
0.0

# fetch the recorded call for COc1cc2c(c(OC)c1OC)-c1ccc(O)c(=O)cc1[C@@H](N)CC2 here
1.0

###

Test system: A549-ACTB-RAB5A
Assay: phenotypically active (imaging signature differs from DMSO and reproducible) at any of 0.3-9 uM (binary (1 = active, 0 = inactive)); higher = active
Details: treatment time: 24 h
Where a name gives a salt, the structure may show the parent alone.
Reported phenotypically active values follow for various compounds
Give the figure only, with no unit attached.

| COMPOUND | phenotypically active |
| --- | --- |
| CC(C)C[C@H](CN)CC(=O)O | 0 |
| CN1C2CCC1CC(O)C2 (stereo not given) | 0 |
| COc1cc(C(=O)O[C@H]2C[C@H]3CC[C@@H](C2)N3C)ccc1O | 0 |
| CC(C)(C)c1cc(C=C(C#N)C#N)cc(Br)c1O | 0 |
| C[C@]12Cc3cn[nH]c3C[C@@H]1CC[C@@H]1[C@@H]2CC[C@@]2(C)[C@H]1CC[C@]2(C)O | 0 |

Requested read-out: phenotypically active. Entry: NCC1(CC(=O)O)CCCCC1
0

Requested read-out: phenotypically active. Entry: COc1ccc(C(=O)OC2C[C@H]3CC[C@H](C2)N3C)cc1OC (stereo not given in full) [Convolamine hydrochloride]
0

Requested read-out: phenotypically active. Entry: CN1[C@@H]2CC[C@H]1C[C@@H](OC(=O)C(CO)c1ccccc1)C2 (stereo not given in full) [Atropine sulfate monohydrate]
0

Requested read-out: phenotypically active. Entry: CCN(CC)C(C)C(=O)c1ccccc1 (stereo not given)
0

Requested read-out: phenotypically active. Entry: O[C@H]1[C@H](O)[C@@H](O)CN2CC[C@H](O)[C@H]12
0

###

System: HepG2-ACTB-RAB5A
Test: phenotypically active (imaging signature differs from DMSO and reproducible) at any of 0.3-9 uM (binary (1 = active, 0 = inactive)); higher = active
Conditions: treatment time: 24 h
Structures can show the parent of a compound that is named as a salt.
Reported phenotypically active values follow for various compounds
Give the figure only, with no unit attached.

| COMPOUND | TARGET OR TEST SYSTEM | OBS VALUE |
| --- | --- | --- |
| CN1CCC2=C[C@H](O)[C@H]3OC(=O)c4cc5c(cc4[C@H]3[C@@H]21)OCO5 [Hippeastrine hydrobromide] | HepG2-ACTB-RAB5A | 0 |
| O=C1C[C@@H]2OCC=C3CN4CC[C@]56c7ccccc7N1[C@H]5[C@H]2[C@H]3C[C@H]46 [Strychnine] | HepG2-ACTB-RAB5A | 0 |
| C[C@@H]1CC[C@H]2[C@@H](C)C(=O)O[C@@H]3O[C@@]4(C)CC[C@@H]1[C@]32OO4 [Artemisinin] | HepG2-ACTB-RAB5A | 1 |

Request - read-out phenotypically active | tested on HepG2-ACTB-RAB5A | compound Oc1ccc2c3c1O[C@H]1[C@@H](O)CC[C@@]4(O)[C@@H](C2)N(CC2CCC2)CC[C@]314 [nalbuphine]
0

Request - read-out phenotypically active | tested on HepG2-ACTB-RAB5A | compound C[C@H]1CCCC=C[C@@H]2C[C@H](O)C[C@H]2[C@H](O)C=CC(=O)O1 [brefeldin-a]
1

Request - read-out phenotypically active | tested on HepG2-ACTB-RAB5A | compound COc1ccc(CCN2CCC(Nc3nc4ccccc4n3Cc3ccc(F)cc3)CC2)cc1 [astemizole]
1

Request - read-out phenotypically active | tested on HepG2-ACTB-RAB5A | compound C[C@H]1CC[C@@H]2N(C1)C[C@H]1[C@@H]3C[C@H]4[C@@H](CC(=O)[C@H]5C[C@@H](O)CC[C@@]54C)[C@@H]3CC[C@H]1[C@]2(C)O [Imperialine]
0
